The values you see were collected from patent US6989371B1.

- System: PTC (colon)
- Experiment description: MTT cytotoxicity assay, 72 hours (Example 13)
- Assay type: cell-based, human
- Experimental parameters: 100 PM
Non-standard residues stand in square brackets, D forms with d. Residues, ends and D or L forms follow the SMILES beside them. Aib = CC(C)(N)C(=O)O
Measure: Percent Cytotoxicity (%)
Write the answer as a number in %, unit excluded.

Quick note, Percent Cytotoxicity for CC(C)C[C@H](NC(=O)[C@H](Cc1c[nH]cn1)NC(=O)CNC(=O)[C@@H](NC(=O)C(C)(C)NC(=O)[C@H](Cc1c[nH]c2ccccc12)NC(=O)[C@H](CCC(N)=O)NC(=O)[C@H](N)Cc1ccccc1)C(C)C)C(N)=O [SEQ ID: 4, D-Phe-Gln-Trp-Aib-Val-Gly-His-Leu-NH2] (H-[dF]QW[Aib]VGHL-NH2; N-terminus assumed) landed at 14.9

---

- System: U87MG (Glioblastoma)
- Experiment description: MTT cytotoxicity assay, 48 hours (Example 14)
- Assay type: cell-based
- Experimental parameters: 1 nM
Non-standard residues stand in square brackets, D forms with d. Residues, ends and D or L forms follow the SMILES beside them. *: point of attachment. Octanoyl = CCCCCCCC(=O)*; Ac5c = NC1(C(=O)O)CCCC1; Deg = CCC(N)(CC)C(=O)O; Aib = CC(C)(N)C(=O)O; Butyryl = CCCC(=O)*
Below: a set of entries, each annotated with reported Percentage cytotoxicity.
Write the answer as a number in %, unit excluded.

CCCC(=O)N[C@H](Cc1ccccc1)C(=O)N[C@@H](CCC(N)=O)C(=O)N[C@@H](Cc1c[nH]c2ccccc12)C(=O)N[C@@H](C)C(=O)N[C@H](C(=O)NC(C)(C)C(=O)N[C@@H](Cc1c[nH]cn1)C(=O)N[C@@H](CC(C)C)C(N)=O)C(C)C [SEQ ID: 11] (Butyryl-[dF]QWAV[Aib]HL-NH2) :: 24.2
CC(C)C[C@H](NC(=O)[C@H](Cc1c[nH]cn1)NC(=O)C1(NC(=O)[C@@H](NC(=O)[C@H](C)NC(=O)[C@H](Cc2c[nH]c3ccccc23)NC(=O)[C@H](CCC(N)=O)NC(=O)[C@H](N)Cc2ccccc2)C(C)C)CCCC1)C(N)=O [SEQ ID: 10, D-Phe-Gln-Trp-Ala-Val-Ac5c-His-Leu-NH2] (H-[dF]QWAV[Ac5c]HL-NH2; N-terminus assumed) :: 25.6
CCC(CC)(NC(=O)[C@H](Cc1c[nH]c2ccccc12)NC(=O)[C@H](CCC(N)=O)NC(=O)[C@H](N)Cc1ccccc1)C(=O)N[C@H](C(=O)NCC(=O)N[C@@H](Cc1c[nH]cn1)C(=O)N[C@@H](CC(C)C)C(N)=O)C(C)C [SEQ ID: 9, D-Phe-Gln-Trp-Deg-Val-Gly-His-Leu-NH2] (H-[dF]QW[Deg]VGHL-NH2; N-terminus assumed) :: 21.8

As a next step, examine the compound that follows.
Kindly note: U87MG (Glioblastoma), CCCCCCCC(=O)N[C@H](Cc1ccccc1)C(=O)N[C@@H](CCC(N)=O)C(=O)N[C@@H](Cc1c[nH]c2ccccc12)C(=O)N[C@@H](C)C(=O)N[C@H](C(=O)NC(C)(C)C(=O)N[C@@H](Cc1c[nH]cn1)C(=O)N[C@@H](CC(C)C)C(N)=O)C(C)C [SEQ ID: 12] (Octanoyl-[dF]QWAV[Aib]HL-NH2) , Percentage cytotoxicity value reported: 28.3
